Each entry below lists one item and its recorded pIC50 value.
- Test system: human cytomegalovirus (HCMV)
- Procedure Summary: Antiviral activity against human cytomegalovirus (HCMV) in MRC5 cells
- Format: cell-based
- Condition Description: Human betaherpesvirus 5, 168 h; MRC5 cells, MOI 0.01 IU per cell, 7 days post infection, mCherry positive cells
pIC50: −log10 of the molar value.
Observation Type: pIC50

[[record]]
smiles_code = "CN(C(N)=O)c1ccc2c(c1)CN(c1ncc(Cc3ccc(N4CCOCC4)cc3)s1)CC2"
target_or_system = "human cytomegalovirus (HCMV)"
recorded_result = 5.67

[[record]]
smiles_code = "NC(=O)Nc1ccc2c(c1)CN(c1ncc(Cc3ccc(-c4ncccn4)cc3)s1)CC2"
target_or_system = "human cytomegalovirus (HCMV)"
recorded_result = 5.84

[[record]]
smiles_code = "CNC(=O)N(C)c1ccc2c(c1)CN(c1ncc(Cc3ccc(-n4cccn4)cc3)s1)CC2"
target_or_system = "human cytomegalovirus (HCMV)"
recorded_result = 6.06

[[record]]
smiles_code = "NC(=O)Nc1ccc2c(c1)CN(c1ncc(Cc3ccc(-n4cccn4)cc3)s1)CC2"
target_or_system = "human cytomegalovirus (HCMV)"
recorded_result = 6.10

[[record]]
smiles_code = "NC(=O)Nc1ccc2c(c1)CN(c1ncc(Cc3ccc(-c4ccco4)cc3)s1)CC2"
target_or_system = "human cytomegalovirus (HCMV)"
recorded_result = 5.93

[[record]]
smiles_code = "CCOc1ccc(Cc2cnc(N3CCc4ncc(NC(N)=O)cc4C3)s2)cc1"
target_or_system = "human cytomegalovirus (HCMV)"
recorded_result = 5.19

[[record]]
smiles_code = "CNC(=O)N(C)c1ccc2c(c1)CN(c1noc(Cc3ccc(-n4cccn4)cc3)n1)CC2"
target_or_system = "human cytomegalovirus (HCMV)"
recorded_result = 5.60

[[record]]
smiles_code = "NC(=O)Nc1ccc2c(c1)CN(c1ncc(Cc3ccc(N4CCS(=O)(=O)CC4)cc3)s1)CC2"
target_or_system = "human cytomegalovirus (HCMV)"
recorded_result = 5.59

[[record]]
smiles_code = "NC(=O)Nc1ccc2c(c1)CN(c1ncc(Cc3ccc(N4CCOCC4)cc3)s1)CC2"
target_or_system = "human cytomegalovirus (HCMV)"
recorded_result = 5.84

[[record]]
smiles_code = "NC(=O)Nc1cnc2c(c1)CN(c1ncc(Cc3ccc(N4CCOCC4)cc3)s1)CC2"
target_or_system = "human cytomegalovirus (HCMV)"
recorded_result = 4.79

[[record]]
smiles_code = "CN(C(N)=O)c1ccc2c(c1)CN(c1ncc(Cc3ccc(OCC4CC4)cc3)s1)CC2"
target_or_system = "human cytomegalovirus (HCMV)"
recorded_result = 5.61

[[record]]
smiles_code = "CN(C(N)=O)c1ccc2c(c1)CN(c1ncc(Cc3ccc(-n4cccn4)cc3)s1)CC2"
target_or_system = "human cytomegalovirus (HCMV)"
recorded_result = 5.91

[[record]]
smiles_code = "NC(=O)Nc1cnc2c(c1)CN(c1ncc(Cc3ccc(-n4cccn4)cc3)s1)CC2"
target_or_system = "human cytomegalovirus (HCMV)"
recorded_result = 5.28

[[record]]
smiles_code = "CS(=O)(=O)c1ccc(Cc2cnc(N3CCc4ccc(NC(N)=O)cc4C3)s2)cc1"
target_or_system = "human cytomegalovirus (HCMV)"
recorded_result = 5.25

